Molecular target: Aβ1-40 (Homo sapiens, UniProt P05067)
Sequence (P05067 672-711): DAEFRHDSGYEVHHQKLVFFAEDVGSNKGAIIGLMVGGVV
Format: biochemical
Parameters: unit not given here
Details: Table XI; 5 μM test compound
Square brackets hold non-standard residues; d marks the D form. Peptide text beside a SMILES is read from it. * marks the point of attachment. Isoquinolin(3-yl)carbonyl = O=C(c1cc2ccccc2cn1)*; Quinoline4carbonyl = O=C(c1ccnc2ccccc12)*; Benzoyl(4-OH) = O=C(c1ccc(O)cc1)*; Isonicotinoyl = O=C(c1ccncc1)*; X5 = O=C(c1nccc2ccccc12)*
# ΔLag listing for each entry below

Example results:
CC(C)C[C@@H](NC(=O)[C@H](NC(=O)[C@@H](Cc1ccccc1)NC(=O)[C@@H](Cc1ccccc1)NC(=O)[C@@H](C)NC(=O)CN)C(C)C)C(N)=O [PPI-734, H-Glycyl-d(AFFVL)-nh2]	>10
CC(C)C[C@@H](NC(=O)[C@H](NC(=O)[C@@H](Cc1ccccc1)NC(=O)[C@@H](Cc1ccccc1)NC(=O)[C@@H](C)NC(=O)c1ccnc2ccccc12)C(C)C)C(N)=O [PPI-746, 4-Quinolinecarboxyl-d(AFFVL)-nh2] (Quinoline4carbonyl-[dA][dF][dF][dV][dL]-NH2)	2

Name the recorded ΔLag for CC(C)C[C@@H](NC(=O)[C@H](NC(=O)[C@@H](Cc1ccccc1)NC(=O)[C@@H](Cc1ccccc1)NC(=O)[C@@H](C)NC(=O)c1ccncc1)C(C)C)C(N)=O [PPI-732, Isonicotinoyl-d(AFFVL)-nh2] (Isonicotinoyl-[dA][dF][dF][dV][dL]-NH2) .
<2

And then CC(C)C[C@@H](N)C(=O)N[C@@H](C(=O)N[C@H](Cc1ccccc1)C(=O)N[C@H](Cc1ccccc1)C(=O)N[C@@H](C(N)=O)C(C)C)C(C)C [PPI-657, H-d(LVFFV)-nh2] (H-[dL][dV][dF][dF][dV]-NH2) , what is it?
>10

Here is the next compound: CC(C)C[C@@H](NC(=O)c1ccc(O)cc1)C(=O)N[C@@H](C(=O)N[C@H](Cc1ccccc1)C(=O)N[C@H](Cc1ccc(O)cc1)C(=O)N[C@H](C)C(N)=O)C(C)C [PPI-772, 4-Hydroxybenzoyl-d(LVFYA)-nh2] ({Benzoyl(4-OH)}-[dL][dV][dF][dY][dA]-NH2)
2

Continue with CC(C)C[C@@H](NC(=O)[C@H](NC(=O)[C@@H](Cc1ccccc1)NC(=O)[C@@H](Cc1ccccc1)NC(=O)[C@@H](C)NC(=O)c1cc2ccccc2cn1)C(C)C)C(N)=O [PPI-749] ({Isoquinolin(3-yl)carbonyl}-[dA][dF][dF][dV][dL]-NH2)
3

Same read-out for CC(C)C[C@@H](NC(=O)[C@H](NC(=O)[C@@H](Cc1ccccc1)NC(=O)[C@@H](Cc1ccccc1)NC(=O)[C@@H](C)NC(=O)c1nccc2ccccc12)C(C)C)C(N)=O [PPI-748, 1-Isoquinolinecarboxyl-d(AFFVL)-nh2] (X5-[dA][dF][dF][dV][dL]-NH2) ?
<3

Another compound to look at: CC(C)C[C@@H](N)C(=O)N[C@@H](C(=O)N[C@H](Cc1ccccc1)C(=O)N[C@H](Cc1ccccc1)C(=O)N[C@H](Cc1ccccc1)C(N)=O)C(C)C [PPI-656, H-d(LVFFF)-nh2] (H-[dL][dV][dF][dF][dF]-NH2)
>2.5
